B1: POMT2 (parent)
chain: YHEAPMTRKHYQVTGYGINGTGDS

- Variants of: B1
- MEASUREMENT_DESCRIPTION: protein stability index of a GFP-peptide fusion (GPS, HEK-293T) (PSI 1-6); higher = more stable;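 note: lentivirally expressed fusions sorted by FACS into six bins by GFP to DsRed ratio, PSI derived from sequencing read proportions per bin multiplied by bin number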
- SETUP_CONDITIONS: c terminus: a fixed tail appended
Can you tell me protein stability index for the items I'm about to list?

Here are 2 variants together with their reported answers.
| VAR | protein stability index |
| --- | --- |
| G20I | 2.03 |
| H2C | 1.97 |

Could you tell me protein stability index for each of these variants? They are listed below.
1. D23A
2. G22M
3. N19C
4. H2G
5. Q12A
6. Y11S
7. H10G

Reply |
1: 2.02; 2: 2.04; 3: 2.02; 4: 2.92; 5: 1.96; 6: 3.03; 7: 3.05

Where these numbers come from: the supplement of paper PMC10567573
